These entries and their values trace back to patent US5232937A.

measurement_notes: Toxicity (LD50 IV in mice)
settings: mouse, in vivo; IV in mice
endpoint: LD50 (mg/kg)
Lab book: enter the figure in mg/kg, no units written.

For record N#Cc1ccc(C(=O)Nc2cc(C(=O)O)cc(C(=O)O)c2)cc1 [Compound 1, N-(3,5-dicarboxy)phenyl-4-cyanobenzamide] the listed LD50 is 2400

----------
measurement_notes: Toxicity (LD50 IV in mice)
settings: mouse, in vivo; LD50 IV mice versus ED50 of pentagastrin; read-out: toxic dose relative to the antacid-secretion dose
endpoint: selectivity ratio

Just so you know, measured selectivity ratio for N#Cc1ccc(C(=O)Nc2cc(C(=O)O)cc(C(=O)O)c2)cc1 [Compound 1, N-(3,5-dicarboxy)phenyl-4-cyanobenzamide] came out at ~50
